Target: Tyrosine-protein phosphatase non-receptor type 6 (Homo sapiens, UniProt P29350)
Sequence (P29350 whole entry, the tested form may be a part): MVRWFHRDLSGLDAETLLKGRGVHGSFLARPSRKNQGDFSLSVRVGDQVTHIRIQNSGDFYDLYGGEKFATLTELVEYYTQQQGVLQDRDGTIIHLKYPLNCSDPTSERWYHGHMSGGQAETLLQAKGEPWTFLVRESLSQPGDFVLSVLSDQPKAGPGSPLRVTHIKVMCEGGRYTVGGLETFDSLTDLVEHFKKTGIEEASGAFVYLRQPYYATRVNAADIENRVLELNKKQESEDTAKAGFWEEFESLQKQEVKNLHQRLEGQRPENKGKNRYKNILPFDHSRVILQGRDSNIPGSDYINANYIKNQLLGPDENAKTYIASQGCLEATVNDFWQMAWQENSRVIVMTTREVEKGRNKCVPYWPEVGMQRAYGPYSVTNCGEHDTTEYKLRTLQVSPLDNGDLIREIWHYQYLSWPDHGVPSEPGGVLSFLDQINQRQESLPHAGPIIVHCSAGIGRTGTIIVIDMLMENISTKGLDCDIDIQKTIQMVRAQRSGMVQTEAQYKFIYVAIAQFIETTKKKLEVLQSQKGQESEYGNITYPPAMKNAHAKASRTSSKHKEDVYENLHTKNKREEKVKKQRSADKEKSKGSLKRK
Assay: Inhibition of His6-fused human full length SHP1 expressed in Escherichia coli cells using DiFMUP as substrate preincubated for 30 mins followed by substrate addition and by fluorescence method
REPORTED_METRIC: IC50

Asked: Name the recorded IC50 of the compound listed here: Cc1nc(N2CCC3(CC2)CO[C@@H](C)[C@H]3N)c(CO)nc1-c1cccc(Cl)c1Cl
Given back: > 10 µM

----------
Molecular target: Tyrosine-protein phosphatase non-receptor type 11 (Homo sapiens, UniProt Q06124)
Test: Inhibition of N-terminal His6-tagged TEV cleavage site-fused human SHP2 catalytic domain (248 to 527 residues) expressed in Escherichia coli Rosetta(DE3) using 6,8-difluoro-4-methylum-belliferylphosphate as substrate preincubated for 1 hr followed by substrate addition by fluorescence method
REPORTED_METRIC: pIC50
To interpret pIC50, take it as minus log10 of a concentration measured in moles per litre.

Here's what some known entries look like.
O=C1/C(=N\Nc2ccc(S(=O)(=O)O)cc2)C(c2ccc([N+](=O)[O-])cc2)=NN1c1ccc(C(F)(F)F)cc1 ... 6.03
Cc1ccc(N2N=C(c3ccc([N+](=O)[O-])cc3)/C(=N/Nc3ccc(S(=O)(=O)O)cc3)C2=O)cc1 ... 6.39
O=C1/C(=N\Nc2ccc(S(=O)(=O)O)cc2)C(c2ccc([N+](=O)[O-])cc2)=NN1c1ccc([N+](=O)[O-])cc1 ... 7.15
O=C1/C(=N\Nc2ccc(S(=O)(=O)O)cc2)C(c2ccc([N+](=O)[O-])cc2)=NN1c1ccc(Cl)cc1 ... 5.94

Now look at this entry.
Asked: Name the recorded pIC50 of the molecule listed here: COc1ccc(N2N=C(c3ccc([N+](=O)[O-])cc3)/C(=N/Nc3ccc(S(=O)(=O)O)cc3)C2=O)cc1
Given back: 6.30

----------
Target: UniProtKB P29350
Assay: Inhibition of N-terminal His6-tagged TEV cleavage site-fused human SHP1 (222 to 535 residues) expressed in Escherichia coli BL21(DE3)RILcodon+ or BL21(DE3)RPcodon+ using 4-nitrophenylphosphate as substrate
REPORTED_METRIC: IC50 (nM)
Field format: number, assumed nM, no unit text.

Asked: Name the recorded IC50 of the compound listed here: CCOC(=O)c1ccc(N2N=C(c3ccc([N+](=O)[O-])cc3)/C(=N/Nc3ccc(S(=O)(=O)O)cc3)C2=O)cc1
Given back: 1800

----------
Molecular target: UniProt:Q06124
Sequence (Q06124 whole entry): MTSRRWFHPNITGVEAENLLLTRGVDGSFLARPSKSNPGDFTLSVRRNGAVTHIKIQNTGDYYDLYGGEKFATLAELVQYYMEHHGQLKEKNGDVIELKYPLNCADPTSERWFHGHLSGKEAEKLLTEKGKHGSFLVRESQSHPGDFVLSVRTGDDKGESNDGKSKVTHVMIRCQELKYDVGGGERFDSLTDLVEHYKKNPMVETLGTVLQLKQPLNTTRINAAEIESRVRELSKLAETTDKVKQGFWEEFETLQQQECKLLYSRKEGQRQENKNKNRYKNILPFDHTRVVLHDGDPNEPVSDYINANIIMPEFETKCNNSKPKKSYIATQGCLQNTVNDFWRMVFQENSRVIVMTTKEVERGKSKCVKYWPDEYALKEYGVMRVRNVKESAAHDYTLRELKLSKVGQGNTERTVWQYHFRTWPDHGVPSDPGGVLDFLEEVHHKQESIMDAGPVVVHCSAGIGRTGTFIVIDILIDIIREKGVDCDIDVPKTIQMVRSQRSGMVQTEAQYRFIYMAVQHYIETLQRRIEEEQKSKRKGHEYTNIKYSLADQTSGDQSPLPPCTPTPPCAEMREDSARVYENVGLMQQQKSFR
Experiment: Allosteric inhibition of full-length His6-tagged human SHP2 (2 to 527 residues) expressed in Escherichia coli using DiFMUP as substrate in presence of activating peptide (LN(pY)IDLDLV(dPEG8)LST(pY)ASINFQK-amide) by fluorescence method
REPORTED_METRIC: pIC50
To interpret pIC50, take it as minus log10 of a concentration measured in moles per litre.

Asked: Name the recorded pIC50 of the compound listed here: C[C@@H]1OCC2(CCC(c3cnc4nc(Sc5ccnc(N6CCCC6)c5Cl)ccc4n3)CC2)[C@@H]1N (stereo partly specified)
Given back: 7.00

----------
Target: Tyrosine-protein phosphatase non-receptor type 1 (Homo sapiens, UniProt P18031)
Sequence (P18031 whole entry): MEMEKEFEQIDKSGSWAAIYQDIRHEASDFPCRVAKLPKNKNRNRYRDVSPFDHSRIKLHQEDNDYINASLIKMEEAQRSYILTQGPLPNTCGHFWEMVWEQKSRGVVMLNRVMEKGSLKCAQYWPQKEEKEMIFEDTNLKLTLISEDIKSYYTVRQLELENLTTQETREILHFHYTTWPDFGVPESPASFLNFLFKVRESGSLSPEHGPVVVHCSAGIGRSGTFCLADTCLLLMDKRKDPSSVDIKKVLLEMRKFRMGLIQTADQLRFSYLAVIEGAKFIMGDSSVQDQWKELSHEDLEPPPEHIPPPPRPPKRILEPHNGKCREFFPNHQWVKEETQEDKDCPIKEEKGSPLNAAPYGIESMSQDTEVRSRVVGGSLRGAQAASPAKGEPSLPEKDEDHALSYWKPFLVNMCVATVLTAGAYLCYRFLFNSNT
Assay: Inhibition of His6-fused human PTP1B expressed in Escherichia coli cells using DiFMUP as substrate preincubated for 30 followed by substrate addition and by fluorescence method
REPORTED_METRIC: IC50

Asked: Name the recorded IC50 of the molecule listed here: Cc1nc(N2CCC3(CC2)CO[C@@H](C)[C@H]3N)c(CO)nc1-c1cccc(Cl)c1Cl
Given back: > 10 µM

----------
Target: Tyrosine-protein phosphatase non-receptor type 1 (Homo sapiens)
Sequence (P18031 whole entry): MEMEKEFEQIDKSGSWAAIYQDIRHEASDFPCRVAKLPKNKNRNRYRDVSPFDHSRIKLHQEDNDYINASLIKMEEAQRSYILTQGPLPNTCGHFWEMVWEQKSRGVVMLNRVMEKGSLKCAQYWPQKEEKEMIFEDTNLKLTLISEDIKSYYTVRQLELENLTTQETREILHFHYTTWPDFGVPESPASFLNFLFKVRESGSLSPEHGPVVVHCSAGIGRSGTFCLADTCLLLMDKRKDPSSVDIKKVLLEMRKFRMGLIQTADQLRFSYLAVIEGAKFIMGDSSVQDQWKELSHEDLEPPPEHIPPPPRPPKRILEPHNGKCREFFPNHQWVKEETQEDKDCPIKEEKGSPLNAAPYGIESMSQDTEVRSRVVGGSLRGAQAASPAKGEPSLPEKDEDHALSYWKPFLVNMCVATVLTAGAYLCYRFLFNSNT
Experiment: Inhibition of PTP1B (unknown origin) using 6,8-difluoro-4-methylum-belliferylphosphate as substrate preincubated for 1 hr followed by substrate by fluorescence method
# key: entry, value: pIC50
To interpret pIC50, take it as minus log10 of a concentration measured in moles per litre.

Here's what some known entries look like.
COc1ccc(N2N=C(c3ccc([N+](=O)[O-])cc3)/C(=N/Nc3ccc(S(=O)(=O)O)cc3)C2=O)cc1 ... 5.17
O=C1/C(=N\Nc2ccc(S(=O)(=O)O)cc2)C(c2ccc([N+](=O)[O-])cc2)=NN1c1ccc(C(F)(F)F)cc1 ... 4.97
O=C1/C(=N\Nc2ccc(S(=O)(=O)O)cc2)C(c2ccc([N+](=O)[O-])cc2)=NN1c1ccc(Cl)cc1 ... 5.05
Cc1ccc(N2N=C(c3ccc([N+](=O)[O-])cc3)/C(=N/Nc3ccc(S(=O)(=O)O)cc3)C2=O)cc1 ... 5.18

Asked: Provide pIC50, system Tyrosine-protein phosphatase non-receptor type 1 (Homo sapiens), entry O=C1/C(=N\Nc2ccc(S(=O)(=O)O)cc2)C(c2ccc([N+](=O)[O-])cc2)=NN1c1ccc([N+](=O)[O-])cc1
Given back: 5.50

----------
Target: Tyrosine-protein phosphatase non-receptor type 11 (Homo sapiens, UniProt Q06124, Q257L/T253M)
Assay: Inhibition of SHP2 T253M/Q257L double mutant (unknown origin)
REPORTED_METRIC: pIC50
To interpret pIC50, take it as minus log10 of a concentration measured in moles per litre.

Asked: Name the recorded pIC50 of the compound listed here: COc1cccc(-c2nnc3n(Cc4ccccc4Cl)c(=O)c4ccccc4n23)c1O
Given back: 4.17

----------
Molecular target: UniProt:P18031
Sequence (P18031 whole entry): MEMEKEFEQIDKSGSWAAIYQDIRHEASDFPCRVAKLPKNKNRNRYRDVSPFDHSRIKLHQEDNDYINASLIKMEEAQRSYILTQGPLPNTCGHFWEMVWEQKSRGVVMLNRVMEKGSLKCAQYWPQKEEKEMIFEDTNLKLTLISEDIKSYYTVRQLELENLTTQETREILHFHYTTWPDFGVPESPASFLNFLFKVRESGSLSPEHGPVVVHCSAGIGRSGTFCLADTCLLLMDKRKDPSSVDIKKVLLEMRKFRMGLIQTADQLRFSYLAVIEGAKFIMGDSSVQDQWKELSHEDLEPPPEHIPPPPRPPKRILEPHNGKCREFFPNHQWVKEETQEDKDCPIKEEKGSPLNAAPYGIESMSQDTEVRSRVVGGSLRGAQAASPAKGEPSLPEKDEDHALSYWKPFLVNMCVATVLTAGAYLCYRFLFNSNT
Assay: Inhibition of N-terminal His6-tagged TEV cleavage site-fused human PTP1B (2 to 297 residues) expressed in Escherichia coli BL21(DE3)RILcodon+ or BL21(DE3)RPcodon+ using 4-nitrophenylphosphate as substrate
REPORTED_METRIC: IC50

Asked: Provide IC50, system UniProt:P18031, entry CCOC(=O)c1ccc(N2N=C(c3ccc([N+](=O)[O-])cc3)/C(=N/Nc3ccc(S(=O)(=O)O)cc3)C2=O)cc1
Given back: 2100 nM
